Test: yeast growth modulation, basal conditions, primary screen, YJM789 clinical isolate, OD600, 24 h (AID 1089);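 note: growth of clinical yeast isolate S. cerevisiae YJM 789 seeded 1000 cells per well; test concentration not given here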
Conditions: S. cerevisiae YJM789 growth, higher = more signal, called active from +8 up or from −8 down
Record yes (1) whenever z-score is at 0.9 or higher; record no (0) when lower.

// inclusive: z-score at least 0.9? input: "CCCC/C=C/[C@H]([C@@H](O)Cc1ccccc1)N(CC#Cc1ccccc1)Cc1ccccc1Br"
yes (1)

Would you mind doing "C=C(/C(=C/C[C@@H](OC(=O)c1ccncc1)c1ccc(CO)o1)c1cnc2ccccc2c1)C(C)C" as well?
no (0)

Would you mind doing "COCCOC(=O)N1C(=O)[C@@]2(c3cc(C#CCNC(N)=O)ccc31)[C@H](c1ccccc1OCCO)N1[C@H](c3ccccc3)[C@H](c3ccccc3)OC(=O)[C@H]1[C@@H]2C(=O)NC[C@H](O)c1ccccc1" as well?
yes (1)

New cases:
// inclusive: z-score at least 0.9? input: "O=C1C[C@@](C(=O)NCCN2CCOCC2)(c2ccc([N+](=O)[O-])cc2)[C@@H](c2ccc(CO)cc2)N1C1CCCCC1"
no (0)

Would you mind doing "CCc1cccc(NC(=O)O[C@H]2[C@H](OC(=O)Nc3ccccc3)[C@@H](OC(=O)Nc3ccccc3)[C@@H](OC)O[C@@H]2CO)c1" as well?
yes (1)

Would you mind doing "C[C@H]1COC(=O)[C@@H]2CCCN2C(=O)[C@@H](C)COC(=O)[C@@H]2CCCN2C1=O" as well?
no (0)

Would you mind doing "CO[C@H]1COC(=O)[C@H](C)COC(=O)[C@H](Cc2ccccc2)NC(=O)CC=C[C@H]1C" as well?
no (0)

* * *

Biological target: Torsin-1A (Homo sapiens)
Experiment: small-molecule binders of mutant TOR1A in lysate, primary screen, cell lysate, small-molecule microarray, COS7 lysate, 635/667 nm fluorescence (AID 1150);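 note: score pools 667 nm emission and signal to noise measuring lysate protein binding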
Conditions: COS7 hTOR1A mutant lysate, 635 nm fluorescence, higher = more signal
Record class 1 whenever composite z-score is at 0.9 or higher; record class 0 when lower.

// inclusive: composite z-score at least 0.9? input: O=C1C2C=CC(C(O)Cc3ccccc3)N(Nc3ccc([N+](=O)[O-])cc3)C2C(=O)N1c1ccccc1 (stereo not given)
class 0

Would you mind doing "C[C@@H]1CC[C@H]2C(=O)N3[C@@H](CC[C@@H](C)[C@@H]3c3cccc(N4CCOCC4)c3)C(=O)N2[C@H]1c1cccc(N2CCOCC2)c1" as well?
class 0

Would you mind doing "Cc1ccc(S[C@]2(C(=O)NCCCN(C)C)CC(=O)N(C3CCCCC3)[C@@H]2c2ccc(CO)cc2I)cc1" as well?
class 0

Would you mind doing "COC(=O)[C@@]1(Cc2ccc(OC)cc2)[C@H]2c3cc(C(=O)N(C)C)n(Cc4ccc(C)c(F)c4F)c3C[C@H]2CN1C(=O)c1ccccc1" as well?
class 0

Would you mind doing "CCCC=C(CCC)[C@@H](NC(=O)c1ccc(C(F)(F)F)cc1)c1ccccc1" as well?
class 0

Would you mind doing C=CCC(OC(C)=O)[C@@H]1[C@@H](N(Cc2cc3ccccc3o2)C(=O)Cc2ccc(F)cc2)c2cc(OCCCO)ccc2N1C(=O)c1ccc(-c2ccccc2)cc1 (stereo not given in full) as well?
class 0

New cases:
// inclusive: composite z-score at least 0.9? input: "C=CC[C@@]1(C(=O)N2CCOCC2)N=C(c2ccc(OCCCO)cc2)O[C@@H]1c1ccccc1"
class 1

Would you mind doing "Cc1ccc(S[C@]2(C(=O)NC3CC3)CC(=O)N(Cc3cc(C(F)(F)F)cc(C(F)(F)F)c3)[C@@H]2c2ccc(CO)cc2)cc1" as well?
class 0

Would you mind doing "[N-]=[N+]=NCc1ccccc1C[C@@]1(C(=O)N2CCOCC2)N=C(c2ccc(OCCCO)cc2)O[C@@H]1c1ccccc1N=[N+]=[N-]" as well?
class 1

Would you mind doing CC1CC/C=C\[C@H]2OC34C=CCN(Cn5nnc6ccccc65)C(=O)[C@H]3N(C(C)CO)C(=O)[C@@H]4C2C(=O)O1 (stereo not given in full) as well?
class 0

Would you mind doing "Cc1ccc(S(=O)(=O)N2[C@@H](c3ccccc3)C(C(=O)O)=CC[C@H]2c2ccccc2)cc1" as well?
class 0
